Origin of values: ChEMBL document CHEMBL1135422

- assayTarget: UniProt:P37136
- Sequence (P37136 whole entry): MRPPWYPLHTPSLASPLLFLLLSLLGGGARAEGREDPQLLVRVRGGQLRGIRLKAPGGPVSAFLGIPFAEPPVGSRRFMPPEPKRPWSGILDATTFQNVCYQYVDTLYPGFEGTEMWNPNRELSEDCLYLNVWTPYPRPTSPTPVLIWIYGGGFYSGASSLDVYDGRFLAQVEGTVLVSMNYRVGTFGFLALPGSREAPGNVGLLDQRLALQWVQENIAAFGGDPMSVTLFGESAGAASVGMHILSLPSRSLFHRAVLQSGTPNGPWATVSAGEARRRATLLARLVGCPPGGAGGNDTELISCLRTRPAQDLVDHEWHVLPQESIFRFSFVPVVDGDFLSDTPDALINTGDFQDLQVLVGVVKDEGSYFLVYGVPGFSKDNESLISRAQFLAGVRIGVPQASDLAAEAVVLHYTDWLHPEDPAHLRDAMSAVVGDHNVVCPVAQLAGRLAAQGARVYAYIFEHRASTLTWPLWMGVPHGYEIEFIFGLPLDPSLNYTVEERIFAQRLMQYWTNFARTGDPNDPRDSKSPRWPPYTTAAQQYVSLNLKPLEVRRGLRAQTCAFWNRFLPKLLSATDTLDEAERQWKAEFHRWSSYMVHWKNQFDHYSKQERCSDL
pIC50: −log10 of the molar value.
Note to self: values exactly at 9 are T. So pIC50 at or above 9 is T, below is F.

Hi team, for "c1ccc2c(NCCCCCCNc3c4c(nc5ccccc35)CCCCC4)c3c(nc2c1)CCCCC3" , is the recorded pIC50 at or above 9?
F

Hi team, for "c1ccc2c(NCCCCCCCNc3c4c(nc5ccccc35)CCC4)c3c(nc2c1)CCC3" , is the recorded pIC50 at or above 9?
F

Hi team, for "Clc1ccc2c(NCCCCCCCNc3c4c(nc5cc(Cl)ccc35)CCCC4)c3c(nc2c1)CCCC3" , is the recorded pIC50 at or above 9?
T

###

In what follows, each item is paired with its IC50 for Cholinesterase (Homo sapiens).
The response must be a number in nM with no trailing unit.

Please look at "c1ccc2c(NCCCCCCCNc3c4c(nc5ccccc35)CCC4)c3c(nc2c1)CCC3" and tell me its recorded IC50 on Cholinesterase (Homo sapiens).
Sequence (P06276 whole entry): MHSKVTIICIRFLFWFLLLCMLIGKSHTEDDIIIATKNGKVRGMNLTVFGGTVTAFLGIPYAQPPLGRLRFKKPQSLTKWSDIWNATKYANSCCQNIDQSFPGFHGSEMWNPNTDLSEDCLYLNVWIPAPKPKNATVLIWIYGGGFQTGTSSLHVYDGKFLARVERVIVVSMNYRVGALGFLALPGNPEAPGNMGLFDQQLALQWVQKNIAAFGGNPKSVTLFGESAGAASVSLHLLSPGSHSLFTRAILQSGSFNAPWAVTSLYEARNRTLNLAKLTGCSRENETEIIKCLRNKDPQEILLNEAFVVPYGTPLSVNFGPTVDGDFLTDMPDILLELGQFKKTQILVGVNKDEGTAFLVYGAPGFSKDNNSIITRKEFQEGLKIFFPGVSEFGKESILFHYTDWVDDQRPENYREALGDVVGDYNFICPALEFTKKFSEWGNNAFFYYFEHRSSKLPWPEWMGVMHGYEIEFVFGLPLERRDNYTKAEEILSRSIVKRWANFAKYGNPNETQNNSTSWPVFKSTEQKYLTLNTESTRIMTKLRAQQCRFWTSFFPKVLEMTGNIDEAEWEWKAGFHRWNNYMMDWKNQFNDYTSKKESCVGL
328

***
Please look at "c1ccc2c(NCCCCCCCCNc3c4c(nc5ccccc35)CCCCC4)c3c(nc2c1)CCCCC3" and tell me its recorded IC50 on Cholinesterase (Homo sapiens).
3.8

Please look at "c1ccc2c(NCCCCCCNc3c4c(nc5ccccc35)CCCCC4)c3c(nc2c1)CCCCC3" and tell me its recorded IC50 on Cholinesterase (Homo sapiens).
3.3

Please look at "c1cnc2nc3c(c(NCCCCCCCCNc4c5c(nc6ncccc46)CCCC5)c2c1)CCCC3" and tell me its recorded IC50 on Cholinesterase (Homo sapiens).
23

Please look at "c1ccc2c(NCCCCCCCNc3c4c(nc5ccccc35)CCCCC4)c3c(nc2c1)CCCCC3" and tell me its recorded IC50 on Cholinesterase (Homo sapiens).
2.6

Please look at "c1ccc2c(NCCCCCCCCNc3c4c(nc5ccccc35)CCC4)c3c(nc2c1)CCC3" and tell me its recorded IC50 on Cholinesterase (Homo sapiens).
165

###

- assayTarget: Acetylcholinesterase (Rattus norvegicus, UniProt P37136)
The threshold is 0.7 nM. Values of IC50 beneath it are tagged label 1; values meeting or exceeding it are tagged label 0.

Solved entries:
IC50 strictly < 0.7 nM for this molecule? "c1ccc2c(NCCCCCCNc3c4c(nc5ccccc35)CCCC4)c3c(nc2c1)CCCC3"
label 0

IC50 strictly < 0.7 nM for this molecule? "c1ccc2c(NCCCCCCCCNc3c4c(nc5ccccc35)CCCC4)c3c(nc2c1)CCCC3"
label 0

IC50 strictly < 0.7 nM for this molecule? "Fc1ccc2c(NCCCCCCCNc3c4c(nc5cc(F)ccc35)CCCC4)c3c(nc2c1)CCCC3"
label 1

IC50 strictly < 0.7 nM for this molecule? "Clc1ccc2c(NCCCCCCNc3c4c(nc5cc(Cl)ccc35)CCCC4)c3c(nc2c1)CCCC3"
label 1

IC50 strictly < 0.7 nM for this molecule? "Fc1ccc2c(NCCCCCCNc3c4c(nc5cc(F)ccc35)CCCC4)c3c(nc2c1)CCCC3"
label 0

# evaluate next
IC50 strictly < 0.7 nM for this molecule? "c1cnc2nc3c(c(NCCCCCCCNc4c5c(nc6ncccc46)CCCC5)c2c1)CCCC3"
label 0
